Assignment: determine reported EC50 for the given molecules.
experimentalSystem: CD73 (Homo sapiens (Human), UniProt P21589)
Sequence (P21589 27-574): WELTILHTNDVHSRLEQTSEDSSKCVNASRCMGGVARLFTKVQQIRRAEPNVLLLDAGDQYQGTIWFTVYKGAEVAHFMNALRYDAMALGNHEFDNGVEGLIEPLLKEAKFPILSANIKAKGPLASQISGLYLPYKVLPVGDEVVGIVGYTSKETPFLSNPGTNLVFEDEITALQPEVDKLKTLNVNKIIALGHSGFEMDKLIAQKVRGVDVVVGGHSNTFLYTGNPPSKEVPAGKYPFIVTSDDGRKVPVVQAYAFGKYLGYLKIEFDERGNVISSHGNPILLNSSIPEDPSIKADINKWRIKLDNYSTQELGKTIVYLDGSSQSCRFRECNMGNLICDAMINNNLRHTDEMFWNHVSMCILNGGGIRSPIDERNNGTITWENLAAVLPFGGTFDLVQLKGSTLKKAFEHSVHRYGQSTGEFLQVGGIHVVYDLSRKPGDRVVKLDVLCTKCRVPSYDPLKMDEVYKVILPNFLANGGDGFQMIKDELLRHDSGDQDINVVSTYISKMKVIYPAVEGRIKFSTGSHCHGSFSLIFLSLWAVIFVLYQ
procedureText: MDA-MB-231 Cell Based CD73 Activity Assay (DMEM)
protocolConditions: MDA-MB-231-GFP cells, DMEM medium with 10% human plasma, 200 uM AMP
Report as a plain number; the unit nM is understood.

EC50 in this record for O=c1[nH]cc(-c2cc([C@H]3C[C@@H]3c3ccc4cnc(C(F)(F)F)cc4c3)c3nccn3n2)c(=O)[nH]1 (racemic) [Example 138] : 0.64

EC50 in this record for N#Cc1ccc([C@H]2C[C@@H]2c2cc(-c3c[nH]c(=O)[nH]c3=O)nn3ccnc23)cc1 [Example 465] : 3.24

EC50 in this record for CC(C)n1ncc2ccc([C@H]3C[C@@H]3c3cc(-c4c[nH]c(=O)[nH]c4=O)nn4ccnc34)cc21 (racemic) [Example 119] : 1.09

EC50 in this record for O=c1[nH]cc(-c2cc([C@H]3C[C@@H]3c3ccccc3)c3nccn3n2)c(=O)[nH]1 (racemic) [Example 7] : 4.15

---

experimentalSystem: CD73 (Homo sapiens (Human))
Format: biochemical
protocolConditions: 1 mM NaH2PO4 in enzyme buffer, CD73 0.3 nM, AMP 15 uM
Assignment: determine reported pIC50 for the given compounds.
Just the number, please; pIC50 means minus log10 of the concentration in mol/L.

pIC50 in this record for O=c1[nH]cc(-c2cc([C@H]3C[C@@H]3c3cnc4cnn(CC(F)(F)F)c4c3)c3ncc(F)n3n2)c(=O)[nH]1 [Example 628] : 9.14

pIC50 in this record for COCC1(F)CCN(c2cc(-c3c[nH]c(=O)[nH]c3=O)nn3ccnc23)C1 (stereo not shown) : 7.76

pIC50 in this record for N#Cc1ccc(O[C@@H]2CN(c3cc(-c4c[nH]c(=O)[nH]c4=O)nn4ccnc34)CC2(F)F)nc1 : 7.96

pIC50 in this record for O=c1[nH]cc(-c2cc([C@H]3C[C@@H]3c3ccc4cnn(CC(F)(F)F)c4c3F)c3ncnn3n2)c(=O)[nH]1 : 9.70

---

experimentalSystem: CD73 (Homo sapiens (Human))
Type: biochemical
protocolConditions: 1 mM NaH2PO4 in enzyme buffer, CD73 0.3 nM, AMP 15 uM
parameter: IC50 (nM)
Report as a plain number; the unit nM is understood.

IC50 in this record for N#Cc1ccc([C@H]2C[C@@H]2c2cc(-c3c[nH]c(=O)[nH]c3=O)nn3ccnc23)cc1 : 0.86

IC50 in this record for O=C1N(CC(F)(F)F)c2cc([C@H]3C[C@@H]3c3cc(-c4c[nH]c(=O)[nH]c4=O)nn4c(Cl)cnc34)ccc2C12CC2 [Example 740] : 0.61

IC50 in this record for CC1(C)CN(c2cc(-c3c[nH]c(=O)[nH]c3=O)nn3ccnc23)C(=O)O1 : 212

IC50 in this record for C#CC1CCN(c2cc(-c3c[nH]c(=O)[nH]c3=O)nn3ccnc23)C1 (stereo not shown) : 1.29

IC50 in this record for O=c1[nH]cc(-c2cc([C@H]3C[C@@H]3c3ncc4cnn(CC(F)(F)F)c4c3F)c3ncc(F)n3n2)c(=O)[nH]1 (racemic) : 1.32

IC50 in this record for O=C(CC1CN(c2cc(-c3c[nH]c(=O)[nH]c3=O)nn3ccnc23)CC1(F)F)NC12CC(C1)C2 (stereo not shown) : 4.68
